I'd appreciate it if you could supply kon values for the items below.
- test-target: T1, cynomolgus monkey IL-33 expressed with a C-terminal hexahistidine tag (cynomolgus monkey)
- T1 construct: also called MfIL-33-6His; Mf-IL-33-6His
- T1 chain: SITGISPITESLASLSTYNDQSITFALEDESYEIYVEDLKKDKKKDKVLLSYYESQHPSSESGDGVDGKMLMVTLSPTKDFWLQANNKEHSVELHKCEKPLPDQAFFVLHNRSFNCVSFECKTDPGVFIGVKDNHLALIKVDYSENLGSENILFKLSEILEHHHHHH
- protocol-notes: SPR 25C pH7.4, mAb captured
// units = M⁻¹ s⁻¹; emit number, no label

Bench note: what kon did H4H9664P (antibody, human IgG4, V domains shown, Human IgG4 Fc (H4H)) VH: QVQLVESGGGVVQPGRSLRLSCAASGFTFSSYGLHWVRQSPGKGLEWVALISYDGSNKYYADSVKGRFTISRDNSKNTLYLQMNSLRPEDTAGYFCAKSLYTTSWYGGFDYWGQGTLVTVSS VL: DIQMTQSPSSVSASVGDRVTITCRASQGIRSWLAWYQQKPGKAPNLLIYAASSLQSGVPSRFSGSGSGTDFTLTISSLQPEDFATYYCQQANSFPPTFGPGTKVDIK show?
140000

Bench note: what kon did H4H9663P (antibody, human IgG4, V domains shown, Human IgG4 Fc (H4H)) VH: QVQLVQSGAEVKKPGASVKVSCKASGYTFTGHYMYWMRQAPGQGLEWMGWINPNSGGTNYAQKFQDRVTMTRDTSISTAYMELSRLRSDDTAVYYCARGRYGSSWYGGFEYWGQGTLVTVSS VL: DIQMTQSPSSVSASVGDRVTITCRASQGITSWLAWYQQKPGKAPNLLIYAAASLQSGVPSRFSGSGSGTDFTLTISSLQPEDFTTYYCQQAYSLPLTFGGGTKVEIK show?
869000

Bench note: what kon did H4H9633P (antibody, human IgG4, V domains shown, Human IgG4 Fc (H4H)) VH: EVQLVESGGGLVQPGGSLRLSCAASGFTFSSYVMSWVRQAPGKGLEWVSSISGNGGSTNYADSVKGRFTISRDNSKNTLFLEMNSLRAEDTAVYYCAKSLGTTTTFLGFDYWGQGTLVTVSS VL: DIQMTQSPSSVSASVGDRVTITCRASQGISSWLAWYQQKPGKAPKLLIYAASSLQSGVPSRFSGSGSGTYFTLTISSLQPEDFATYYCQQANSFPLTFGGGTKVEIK show?
262000
